Where these numbers come from: patent US9556130B2

biological target: human GPR139 receptor (Homo sapiens (Human)); assay: Activation of Calcium Signaling of GPR139 In Vitro Assay; format: cell-based; conditions: stably transfected CHO-TRex cells, Calcium 5 dye, FLIPR Tetra
measure.name: EC50 (nM)

Examples with their reported EC50 follow.
INSERT INTO assay_data (compound, study_system, value_units, recorded_value) VALUES
  ('COc1cc(C)ccc1[C@H](C)NC(=O)[C@@H](C)n1nnc2ccccc2c1=O [Example 51]', 'human GPR139 receptor (Homo sapiens (Human))', 'nM', 16),
  ('COc1ccc([C@H](C)NC(=O)Cn2nnc3c(C)cc(C)cc3c2=O)cc1 [Example 42]', 'human GPR139 receptor (Homo sapiens (Human))', 'nM', 37);

(1) COc1ccc([C@H](C)NC(=O)Cn2nnc3c(Cl)cc(Cl)cc3c2=O)cc1 [Example 27]
(2) COc1ccc([C@H](C)NC(=O)Cn2nnc3cc(C)ccc3c2=O)cc1 [Example 35]
(3) Cc1ccc([C@H](C)NC(=O)Cn2nnc3cc(Cl)ccc3c2=O)cc1 [Example 21]
(4) COc1ccc(CCN(C)C(=O)Cn2nnc3ccccc3c2=O)cc1 [Example 78]
Exam item: list the entries in increasing order of EC50. Give me the labels in the order the question wants.
1, 3, 2, 4

(I) C[C@H](NC(=O)Cn1nnc2ccc(F)cc2c1=O)c1ccc(OC(F)(F)F)cc1F [Example 71]
(II) Cc1ccc([C@H](C)NC(=O)Cn2nnc3c(C)cc(C)cc3c2=O)cc1 [Example 41]
(III) C[C@H](NC(=O)Cn1nnc2ccc(F)cc2c1=O)c1ccc(C(F)(F)F)cc1 [Example 64]
Exam item: list the entries in increasing order of EC50. Give me the labels in the order the question wants.
II, III, I
(II: 7 nM, III: 13 nM, I: 49 nM)

---

target: human GPR139 receptor (Homo sapiens (Human), UniProt Q6DWJ6); test: Activation of Calcium Signaling of GPR139 In Vitro Assay; format: cell-based; details: stably transfected CHO-TRex cells, Calcium 5 dye, FLIPR Tetra
Sequence (Q6DWJ6 whole entry): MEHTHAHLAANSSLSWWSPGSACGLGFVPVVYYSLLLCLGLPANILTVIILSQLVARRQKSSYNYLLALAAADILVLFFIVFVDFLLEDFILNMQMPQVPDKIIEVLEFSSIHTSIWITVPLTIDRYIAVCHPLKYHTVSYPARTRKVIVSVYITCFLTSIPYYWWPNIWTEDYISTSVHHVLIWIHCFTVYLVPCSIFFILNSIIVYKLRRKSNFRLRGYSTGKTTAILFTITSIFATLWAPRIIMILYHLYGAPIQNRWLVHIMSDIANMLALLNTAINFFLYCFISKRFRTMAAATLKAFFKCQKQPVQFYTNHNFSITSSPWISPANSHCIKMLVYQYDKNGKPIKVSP
measure.name: EC50 (nM)

INSERT INTO measurements (smiles_input, value_units, recorded_value) VALUES
  ('C[C@H](NC(=O)Cn1nnc2ccccc2c1=O)c1ccc(F)cc1Br', 'nM', 1510),
  ('Cc1ccc([C@H](C)NC(=O)Cn2nnc3c(C)cccc3c2=O)cc1', 'nM', 9),
  ('COc1ccc([C@H](C)NC(=O)Cn2nnc3c(F)cccc3c2=O)cc1', 'nM', 27),
  ('COc1ccc([C@H](C)NC(=O)Cn2nnc3c(OC)cccc3c2=O)cc1', 'nM', 39);

(A) COc1ccc2nnn(CC(=O)N[C@@H](C)c3ccc(OC(F)(F)F)cc3)c(=O)c2c1
(B) COc1ccc([C@H](C)NC(=O)Cn2nnc3cccc(OC)c3c2=O)cc1
Select the item with the higher value of EC50 from the options A and B listed. Give the chosen item's label as your response.
A
(A: 43 nM, B: 26 nM)

(a) COc1ccc([C@H](C)NC(=O)Cn2nnc3c(Cl)cccc3c2=O)cc1
(b) COc1cc(C)ccc1[C@H](C)NC(=O)[C@H](C)n1nnc2ccccc2c1=O
Identify the entry with the smaller EC50: a or b . Give the chosen item's label as your response.
a

---

target: human GPR139 receptor (Homo sapiens (Human), UniProt Q6DWJ6); experiment: GPR139 Competition Binding; settings: stably transfected CHO-TRex membranes, 1 nM 3H radioligand; read-out: GPR139 Inhibition (Ki (nM))
measure.name: Ki (nM)

INSERT INTO assay_data (compound, measure_name, recorded_value) VALUES
  ('Cc1ccc([C@H](C)NC(=O)Cn2nnc3c(Cl)cccc3c2=O)cc1 [Example 22]', 'Ki', 110),
  ('C[C@H](NC(=O)Cn1nnc2ccc(F)cc2c1=O)c1ccc(C(F)(F)F)cc1 [Example 64]', 'Ki', 106),
  ('Cc1ccc([C@H](C)NC(=O)Cn2nnc3cccc(C)c3c2=O)cc1 [Example 39]', 'Ki', 92);

(I) COc1cccc2c(=O)n(CC(=O)N[C@@H](C)c3ccc(OC(F)(F)F)cc3)nnc12 [Example 62]
(II) Cc1ccc([C@H](C)NC(=O)Cn2nnc3c(Cl)cc(Cl)cc3c2=O)cc1 [Example 26]
(III) COc1ccc2nnn(CC(=O)N[C@@H](C)c3ccc(C(F)(F)F)cc3)c(=O)c2c1 [Example 60]
(IV) COc1ccc([C@H](C)NC(=O)Cn2nnc3c(F)cccc3c2=O)cc1 [Example 17]
(V) Cc1ccc([C@H](C)NC(=O)Cn2nnc3cc(C)ccc3c2=O)cc1 [Example 34]
Exam item: list the entries in increasing order of Ki. Give me the labels in the order the question wants.
II, III, I, V, IV
(II: 26 nM, III: 115 nM, I: 240 nM, V: 347 nM, IV: 3600 nM)

---

molecular target: human GPR139 receptor (Homo sapiens (Human), UniProt Q6DWJ6); assay: GPR139 Competition Binding; settings: stably transfected CHO-TRex membranes, 1 nM 3H radioligand; read-out: GPR139 Inhibition (Ki (nM));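 note: receptor expression induced with doxycycline before membrane preparation, bound radioactivity counted by scintillation, Ki fitted with a four-parameter logistic model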
measure.name: Ki (nM)

INSERT INTO assay_data (smiles_input, measure_name, recorded_value) VALUES
  ('COc1ccc([C@H](C)NC(=O)Cn2nnc3cccc(OC)c3c2=O)cc1', 'Ki', 619),
  ('COc1ccc([C@H](C)NC(=O)Cn2nnc3cccc(F)c3c2=O)cc1', 'Ki', 4850),
  ('COc1ccc([C@H](C)NC(=O)Cn2nnc3c(C)cc(C)cc3c2=O)cc1', 'Ki', 179);

(1) Cc1ccc([C@H](C)NC(=O)Cn2nnc3c(C)cccc3c2=O)cc1
(2) Cc1ccc([C@H](C)NC(=O)Cn2nnc3ccc(F)cc3c2=O)c(C)c1
Select the item with the higher value of Ki from the options 1 and 2 listed. Give the chosen item's label as your response.
1

---

biological target: UniProt Q6DWJ6; test: GPR139 Competition Binding; settings: stably transfected CHO-TRex membranes, 1 nM 3H radioligand; read-out: GPR139 Inhibition (Ki (nM))
measure.name: Ki (nM)

INSERT INTO results (smiles_input, measure_name, recorded_value) VALUES
  ('Cc1ccc([C@H](C)NC(=O)Cn2nnc3cc(Cl)ccc3c2=O)cc1', 'Ki', 173);

(A) COc1ccc([C@H](C)NC(=O)Cn2nnc3c(C)cccc3c2=O)cc1
(B) COc1cccc2c(=O)n(CC(=O)N[C@@H](C)c3ccc(C(F)(F)F)cc3)nnc12
(C) COc1ccc([C@H](C)NC(=O)Cn2nnc3c(Cl)cccc3c2=O)cc1
Exam item: list the entries in increasing order of Ki. Give me the labels in the order the question wants.
B, A, C

(1) Cc1ccc([C@H](C)NC(=O)Cn2nnc3cccc(F)c3c2=O)cc1
(2) Cc1ccc([C@H](C)NC(=O)Cn2nnc3c(F)cccc3c2=O)cc1
Identify the entry with the smaller Ki: 1 or 2 . Give the chosen item's label as your response.
1

(I) COc1ccc([C@H](C)NC(=O)Cn2nnc3cccc(C)c3c2=O)cc1
(II) C[C@H](NC(=O)Cn1nnc2ccc(F)cc2c1=O)c1ccc(OC(F)(F)F)cc1
Identify the entry with the smaller Ki: I or II . Give the chosen item's label as your response.
II

(A) COc1ccc2nnn(CC(=O)N[C@@H](C)c3ccc(OC(F)(F)F)cc3)c(=O)c2c1
(B) C[C@H](NC(=O)Cn1nnc2ccc(F)cc2c1=O)c1ccc(OC(F)F)cc1
Identify the entry with the smaller Ki: A or B . Give the chosen item's label as your response.
A

(I) COc1ccc([C@H](C)NC(=O)Cn2nnc3cc(C)ccc3c2=O)cc1
(II) CC[C@H](NC(=O)Cn1nnc2ccccc2c1=O)c1ccc(C(F)(F)F)cc1
(III) COc1cccc2nnn(CC(=O)N[C@@H](C)c3ccc(C(F)(F)F)cc3)c(=O)c12
(IV) Cc1ccc([C@H](C)NC(=O)Cn2nnc3c(C)cc(C)cc3c2=O)cc1
Exam item: list the entries in increasing order of Ki. Give me the labels in the order the question wants.
IV, III, II, I
(IV: 10 nM, III: 26 nM, II: 214 nM, I: 1520 nM)

---

molecular target: human GPR139 receptor (Homo sapiens (Human), UniProt Q6DWJ6); experiment: Activation of Calcium Signaling of GPR139 In Vitro Assay; assay type: cell-based; conditions: stably transfected CHO-TRex cells, Calcium 5 dye, FLIPR Tetra;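 note: receptor expression induced with doxycycline, calcium fluorescence read continuously for one minute after compound addition, EC50 taken from a four-parameter logistic fit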
measure.name: EC50 (nM)

INSERT INTO assay_data (smiles_input, recorded_value) VALUES
  ('Cc1ccc([C@H](C)NC(=O)Cn2nnc3cc(C)ccc3c2=O)cc1', 7),
  ('Cc1ccc([C@H](C)NC(=O)Cn2nnc3c(F)cccc3c2=O)cc1', 9),
  ('COc1cccc2nnn(CC(=O)N[C@@H](C)c3ccc(C(F)(F)F)cc3)c(=O)c12', 15);

(a) COc1ccc([C@H](C)NC(=O)Cn2nnc3cccc(F)c3c2=O)cc1
(b) Cc1ccc([C@H](C)NC(=O)Cn2nnc3ccc(F)cc3c2=O)c(C)c1
(c) Cc1ccc([C@H](C)NC(=O)Cn2nnc3c(Cl)cccc3c2=O)cc1
Exam item: list the entries in increasing order of EC50. Give me the labels in the order the question wants.
c, b, a

(P) CC[C@H](NC(=O)Cn1nnc2ccccc2c1=O)c1ccc(C(F)(F)F)cc1
(Q) COc1ccc2nnn(CC(=O)N[C@@H](C)c3ccc(C(F)(F)F)cc3)c(=O)c2c1
(R) COc1cccc2c(=O)n(CC(=O)N[C@@H](C)c3ccc(C(F)(F)F)cc3)nnc12
Exam item: list the entries in increasing order of EC50. Give me the labels in the order the question wants.
Q, P, R
